Below, each of the compounds is paired with its reported Population Apoptotic (%) value.
System: U2OS
protocol summary: Multiplex assay against U2OS
Assay type: toxicity, cell-based
assay context: human, 12 h, 1 µM, compound concentration 1 uM, replicate 1
Just the number in %, nothing appended.

Take a look at these entries with their results.
Cc1sc2c(c1C)C(c1ccc(Cl)cc1)=N[C@H](CC(=O)OC(C)(C)C)c1nnc(C)n1-2 :: 81
CSc1nc(NC2CCCC2)c([N+](=O)[O-])c(NC2CCCC2)n1 [GS-39783] :: 82
S=C(NCCCc1c[nH]cn1)NCCCN(Cc1ccc(Cl)c(Cl)c1)c1ccc(Br)cn1 :: 75
COC(c1ccccc1)(c1ccccc1)[C@H](Oc1nc(C)cc(C)n1)C(=O)O [AMBRISENTAN] :: 95
CN(C)C(=O)Cn1cc(-c2ccc(-c3nnc4ccccn34)cc2)cn1 :: 90

Suppose we examine the compound CC(C)C[C@H](CO)Nc1nc(S[C@@H](C)c2ccccc2)nc2nc(N)sc12 [AZD-8797] ; what Population Apoptotic (%) value has been reported?
83

Endpoint output: Population Apoptotic (%) of COc1cc2nc(N3CCN(C(=O)c4ccco4)CC3)nc(N)c2cc1OC.Cl [PRAZOSIN HYDROCHLORIDE] . Value?
88

Dear colleague, I am looking for the recorded Population Apoptotic (%) of the following compound: C[C@H](NC(=O)CNC(=O)c1cccc(Cl)c1)c1ccccc1
78

Bench note: what Population Apoptotic (%) did Cc1cc(O)c(-c2ccc([C@@H](C)CN(C)C)cc2)c2c1[nH]c(=O)c1sccc12 show?
80

Please give the measured Population Apoptotic (%) for this compound: CN(C)C/C=C/C(=O)Nc1ccc(C(=O)N2CCCC(Nc3ncc(Cl)c(-c4c[nH]c5ccccc45)n3)C2)cc1 (stereo not drawn)
77

Fill blank: measured Population Apoptotic (%) of the compound O=c1ccc2ccc(OCCCCN3CCN(c4cccc5sccc45)CC3)cc2[nH]1 [BREXPIPRAZOLE] is ____.
73

Fill in the blank: the reported Population Apoptotic (%) of COCCCN1CCC(NC(=O)c2cc(Cl)c(N)c3c2OCC3)CC1 [PRUCALOPRIDE] is ____.
84

Looking for the measured Population Apoptotic (%) of CN1CCN(c2ccc(Nc3c4ccccc4nc4ccccc34)cc2)CC1.Cl.Cl.O , can you help?
100

====

System: Fibroblast
protocol summary: Multiplex assay against human fibroblast
Assay type: toxicity, cell-based
assay context: 12 h, 1 µM, compound concentration 1 uM, replicate 2
property measured: Population Pyknosed Nuclei (%)
Numbers only; they are read as %.

Would you mind telling me what Population Pyknosed Nuclei (%) value was observed for CN1CCN2c3ccccc3Cc3ccccc3C2C1.Cl (configuration not stated) [MIANSERIN HYDROCHLORIDE] ?
22

====

Tested on: Fibroblast
protocol summary: Multiplex assay against human fibroblast
Assay type: toxicity, cell-based
assay context: 12 h, 1 µM, compound concentration 1 uM, replicate 2
property measured: Total Cell Count

CN1CCC(C(=O)c2cccc(NC(=O)c3c(F)cc(F)cc3F)n2)CC1 :: 142

Returns the measured Total Cell Count for the input molecule. Input: COc1cc2nc(N3CCN(C(=O)COc4c(OC)cccc4C(C)C)CC3)nc(N)c2cc1OC.Cl.Cl
182

Fill in: Total Cell Count of O=C(O)CCC/C=C\CC1C(O)CC(O)C1/C=C/C(O)COc1cccc(Cl)c1 (stereo unspecified) is ___
141

Report Total Cell Count for Cc1cc(-c2ccc3c(c2)CC[C@H]3N2CC3(CCN(C(=O)Cc4cn5cc(C)sc5n4)CC3)C2)ncn1 please.
121
